experiment: Intrinsic clearance in mouse microsomes; assay type: ADME, Microsome
quantityName: microsomal CLint (µL/min/mg)

{"smilesStr": "Cc1cc(C(F)(F)F)cc(NC(=O)NS(=O)(=O)c2cc(C)c(CCO)s2)n1", "readoutUnit": "µL/min/mg", "microsomal CLint": 10}

I = COCCc1sc(S(=O)(=O)NC(=O)Nc2cc(C(F)(F)F)cc(C)n2)cc1C
II = COCCc1sc(S(=O)(=O)NC(=O)Nc2cc(C(F)(F)F)c(F)c(N)n2)cc1C
Lowest microsomal CLint? choose I or II Indicate which entry you chose by stating its label. II
(II: 12.1 µL/min/mg, I: 31 µL/min/mg)

###

experiment: Solubility of the compound; assay type: physicochemical
quantityName: solubility (µg/mL)

I = CC(=O)OCCc1sc(S(=O)(=O)NC(=O)Nc2cc(C(F)(F)F)c(F)c(N)n2)cc1C
II = COCCc1sc(S(=O)(=O)NC(=O)Nc2cc(C(F)(F)F)c(F)c(N)n2)cc1C
Hi, I'm comparing two records. Which one has the lower solubility, I or II ? Provide the label of your selected option as the answer. I

###

experiment: Ratio of drug level in liver to plasma in mouse; assay type: ADME, tissue-based
quantityName: Kp

{"smilesStr": "COCCc1sc(S(=O)(=O)NC(=O)Nc2cc(C(F)(F)F)cc(C)n2)cc1C", "Kp": 10.5}

P = COCCc1sc(S(=O)(=O)NC(=O)Nc2cc(C(F)(F)F)c(F)c(N)n2)cc1C
Q = Cc1cc(C(F)(F)F)cc(NC(=O)NS(=O)(=O)c2cc(C)c(CCO)s2)n1
Between P and Q , whose measured Kp reads higher? Let me know the label of the one you choose. P

###

target: Fructose-1,6-bisphosphatase 1 (Homo sapiens)
Sequence (P09467 whole entry): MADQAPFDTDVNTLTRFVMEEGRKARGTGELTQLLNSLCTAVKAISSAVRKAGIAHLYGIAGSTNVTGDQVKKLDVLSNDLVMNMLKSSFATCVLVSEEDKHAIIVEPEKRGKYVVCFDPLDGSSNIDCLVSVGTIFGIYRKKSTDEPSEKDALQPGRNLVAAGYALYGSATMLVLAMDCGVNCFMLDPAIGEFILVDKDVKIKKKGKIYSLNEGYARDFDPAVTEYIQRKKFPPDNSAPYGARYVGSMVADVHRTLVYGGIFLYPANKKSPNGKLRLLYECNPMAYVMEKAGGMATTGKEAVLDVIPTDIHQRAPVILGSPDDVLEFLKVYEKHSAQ
pIC50: −log10 of the molar value.
quantityName: pIC50

{"smilesStr": "COCCc1sc(S(=O)(=O)NC(=O)Nc2cc(Br)cc(N)n2)cc1C", "studySystem": "Fructose-1,6-bisphosphatase 1 (Homo sapiens)", "pIC50": 6.89}
{"smilesStr": "COCCc1sc(S(=O)(=O)NC(=O)Nc2cc(Br)cc(NCC(F)(F)F)n2)cc1C", "studySystem": "Fructose-1,6-bisphosphatase 1 (Homo sapiens)", "pIC50": 6.70}
{"smilesStr": "COCCc1sc(S(=O)(=O)NC(=O)Nc2cc(Br)cc3nccn23)cc1C", "studySystem": "Fructose-1,6-bisphosphatase 1 (Homo sapiens)", "pIC50": 6.09}

I = CNC(=O)Nc1cc(SC)cc(NC(=O)NS(=O)(=O)c2cc(C)c(CCOC)s2)n1
II = CC(=O)OCCc1sc(S(=O)(=O)NC(=O)Nc2cc(C(F)(F)F)cc(C)n2)cc1C
III = O=C(Nc1cc(Br)cc2[nH]ncc12)NS(=O)(=O)c1cccc(Cl)c1
# rank_down: sort by pIC50, max first Provide your answer as the labels ordered per the instruction. I, III, II
(I: 6.77, III: 6.48, II: 6.28)

I = O=C(Nc1cc(Br)cc2[nH]ccc12)NS(=O)(=O)c1cccc(Cl)c1
II = COCCc1sc(S(=O)(=O)NC(=O)Nc2cc(C(F)(F)F)c(F)c(N)n2)cc1C
Of the two listed items, I and II , which carries the larger pIC50 figure? I would appreciate it if you answered with the label of your choice. I
